# System Under Test: Phospholipid hydroperoxide glutathione peroxidase GPX4 (Homo sapiens)
# Protocol Details: Primary qHTS Assay for Inhibitors of Recombinant Selenoprotein Glutathione Peroxidase 4 (GPX4) (AID 1845192); further: nearly all actives have a fitted effect of over 65% in size
# Cond: recombinant GPX4, GR-coupled NADPH fluorescence, 15 min; series mostly up to 50 µM
Inconclusive results are not listed. The source made the active and inactive calls. The call rests on the fitted dose curve; in most records, active means well fitted inhibition curve with a large enough effect; inconclusive means small, poorly fitted or top-dose-only effect; inactive means flat fitted curve, though single readings scatter.

{"Molecule": "CC1(C)C[C@H]2C3=CCC4[C@@]5(C)CC[C@H](O[C@H]6O[C@H](C(=O)O)[C@@H](O)[C@H](O)[C@H]6O[C@H]6O[C@H](CO)[C@@H](O)[C@H](O)[C@H]6O[C@@H]6O[C@H](CO)[C@@H](O)[C@H](O)[C@H]6O)[C@](C)(CO)C5CC[C@@]4(C)[C@]3(C)CC[C@@]2(C)[C@H](O[C@@H]2OC[C@H](O)[C@H](OC3O[C@H](CO)[C@@H](O)[C@H](O)[C@H]3O)[C@H]2O)[C@@H]1O (some centres undefined)", "outcome": "inactive [at 9.73 µM]"}
{"Molecule": "CC1(C)CC2C3=CCC4C5(C)CCC(OC6OC(CO)C(O)C(OC7OC(CO)C(O)C(OC8OC(CO)C(O)C(OC9OC(COC%10OC(CO)C(O)C(O)C%10O)C(O)C(O)C9O)C8O)C7O)C6O)C(C)(C)C5CCC4(C)C3(C)CCC2(C(=O)O)CC1O (centres undefined)", "outcome": "inactive [at 9.73 µM]"}
{"Molecule": "C=CC(C)(O)CC/C=C(/C)C(=O)OC1C(OC2OCC(OC3OC(CO)C(O)C(O)C3O)C(OC3OCC(O)C(OC4OC(C)C(O)C(O)C4O)C3O)C2O)COC(OC(=O)C23CCC(C)(C)CC2C2=CCC4C5(C)CCC(OC6OC(CO)C(OC7OC(CO)C(O)C(OC8OCC(O)C(O)C8O)C7O)C(O)C6O)C(C)(C)C5CCC4(C)C2(C)CC3O)C1O (centres undefined)", "outcome": "inactive [at 9.73 µM]"}

* * *

# Protocol Details: qHTS assay for cell viability of HEK293 cells (AID 743288); further: on the % scale 0 is the no-effect control and ±100 the full control effect; nearly all actives have a fitted effect of over 50% in size
# Cond: ATP luminescence (CellTiter-Glo), 18 h, hits give low values
Records with an inconclusive call do not appear. Activity calls are given as the source filed them. The call rests on the fitted dose curve; in most records, active means well fitted cell-killing curve with a large enough effect; inconclusive means small, poorly fitted or top-dose-only effect, or effect the other way; inactive means flat fitted curve, though single readings scatter.
Listing: max response of selected compounds
Measurement Kind: max response

{"Compound": "O=C(O)CCC(=O)C(=O)O", "Measurement Kind": "max response", "Experimental Value": "2.53% (inactive)"}
{"Compound": "CCOC(C)=O", "Measurement Kind": "max response", "Experimental Value": "2.28% (inactive)"}
{"Compound": "CC1=C2[C@@H]([C@H](C)CC[C@H]2/C=C(\\C)C(=O)O)[C@H](O)C1", "Measurement Kind": "max response", "Experimental Value": "-12% (inactive)"}
{"Compound": "Nc1ccn([C@H]2CS[C@@H](CO)O2)c(=O)n1", "Measurement Kind": "max response", "Experimental Value": "-4.28% (inactive)"}
{"Compound": "CC1=CCC(C(C)(C)O)CC1 (configuration not stated)", "Measurement Kind": "max response", "Experimental Value": "-13.3% (inactive)"}
{"Compound": "CC1(C)C(C=C(Cl)Cl)C1C(=O)OCc1cccc(Oc2ccccc2)c1 (configuration not stated)", "Measurement Kind": "max response", "Experimental Value": "-9.26% (inactive) [middle of 4 runs]"}
{"Compound": "CC(C)(C)NC(=O)[C@@H]1C[C@@H]2CCCC[C@@H]2CN1C[C@@H](O)[C@H](Cc1ccccc1)NC(=O)[C@H](CC(N)=O)NC(=O)c1ccc2ccccc2n1", "Measurement Kind": "max response", "Experimental Value": "-26% (inactive)"}
